- TARGET: Amine oxidase [flavin-containing] B (Homo sapiens)
- Sequence (P27338 whole entry): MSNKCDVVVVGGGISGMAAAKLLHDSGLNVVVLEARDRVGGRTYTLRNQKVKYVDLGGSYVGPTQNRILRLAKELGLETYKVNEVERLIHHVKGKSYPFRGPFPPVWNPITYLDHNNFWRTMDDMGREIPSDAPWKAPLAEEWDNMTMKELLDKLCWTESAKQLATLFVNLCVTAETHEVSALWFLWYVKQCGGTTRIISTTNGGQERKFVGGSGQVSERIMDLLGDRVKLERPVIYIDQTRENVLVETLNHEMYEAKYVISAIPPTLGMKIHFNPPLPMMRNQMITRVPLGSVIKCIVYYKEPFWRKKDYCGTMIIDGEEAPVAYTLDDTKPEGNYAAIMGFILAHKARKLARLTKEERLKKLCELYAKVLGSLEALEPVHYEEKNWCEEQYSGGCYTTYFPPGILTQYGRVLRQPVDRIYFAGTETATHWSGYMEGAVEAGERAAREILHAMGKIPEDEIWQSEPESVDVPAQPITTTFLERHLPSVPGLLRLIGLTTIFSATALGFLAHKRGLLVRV
- PROCEDURE_TEXT: Inhibition of recombinant human MAO-B using kynuramine as substrate after 20 mins by fluorescence spectrophotometric analysis
PROPERTY_LABEL: log10 of IC50 (log10 of the value in nM)
Note: values are log10 of IC50 expressed in nM.

Example results:
1) O=C1/C(=C/c2ccc(Cl)cc2)Cc2cc(O)ccc21 ... 1.11
2) O=C1/C(=C/c2ccc(O)cc2)Cc2cc(O)ccc21 ... 3.44
3) O=C1/C(=C/c2cccc(Br)c2)Cc2cc(O)ccc21 ... 1.11
4) O=C1/C(=C/c2cccc(Cl)c2)Cc2cc(O)ccc21 ... 1.48
5) O=C1/C(=C/c2ccc(Br)cc2)Cc2cc(O)ccc21 ... 0.72

Now take the following molecule into account.
Challenge: Item `O=C1/C(=C/c2cccc(O)c2)Cc2cc(O)ccc21` has what recorded log10 of IC50?
Response given: 2.98
